Measured values drawn from ChEMBL document CHEMBL3621132 for this set.

Reported values of Papp for individual entries
Assay: Apparent permeability of the compound assessed […] by cell based assay
Assay type: physicochemical
measured parameter: Papp (×10⁻⁶ cm/s)

# compound smiles, numeric value
rows = [
    ("Cc1ncc(Cl)c(N2CC[C@@H](C)N(C(=O)c3ccccc3-n3nccn3)CC2)n1", 34),
    ("COc1nc(N2CC[C@@H](C)N(C(=O)c3cc(C)ccc3-n3nccn3)CC2)ncc1C(F)(F)F", 28),
]

---

Assay: AUC in satellite rat sleep model at 30 mg/kg, po
Format: ADME, organism-based
Settings: in vivo
measured parameter: AUC

# compound smiles, result
records = [
    ("COc1nc(N2CC[C@@H](C)N(C(=O)c3cc(C)ccc3-n3nccn3)CC2)ncc1C(F)(F)F", "5.5 µM·h"),
    ("C[C@@H]1CCN(c2ncc3cc(F)ccc3n2)CCN1C(=O)c1ccccc1-n1nccn1", "4.5 µM·h"),
]
